// data source = ChEMBL document CHEMBL3352690

Answer each item with its documented pKi.
System under test: 5-hydroxytryptamine receptor 1A (Homo sapiens, UniProt P08908)
Sequence (P08908 whole entry): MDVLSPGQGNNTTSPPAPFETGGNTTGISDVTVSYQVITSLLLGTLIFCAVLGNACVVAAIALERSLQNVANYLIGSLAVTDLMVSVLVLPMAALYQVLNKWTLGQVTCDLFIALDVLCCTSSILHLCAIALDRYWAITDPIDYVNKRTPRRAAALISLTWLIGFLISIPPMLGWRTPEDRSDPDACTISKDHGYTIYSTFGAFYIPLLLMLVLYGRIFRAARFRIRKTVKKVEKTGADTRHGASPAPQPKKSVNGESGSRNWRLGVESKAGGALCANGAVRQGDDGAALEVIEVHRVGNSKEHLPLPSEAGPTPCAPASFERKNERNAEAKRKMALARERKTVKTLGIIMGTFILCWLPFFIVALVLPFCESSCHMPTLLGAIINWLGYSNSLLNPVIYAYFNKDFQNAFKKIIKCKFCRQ
Assay details: Displacement of [3H]8-OH-DPAT from 5HT1AR (unknown origin) by competition binding assay
Numbers only, as −log10 of the molar value.

Record excerpt, results attached:
Q: Quote pKi reported for COc1ccccc1N1CCN(CCCn2ncc(=O)n(C)c2=O)CC1 please.
A: 6.74

Q: Write down pKi measured for item Cn1c(=O)cnn(CCCN2CCN(c3ccccc3F)CC2)c1=O
A: 6.60

Q: Dear colleague, please send me the reported pKi for CCOc1ccc2cccc(N3CCN(CCCCn4ncc(=O)n(C)c4=O)CC3)c2c1 when you can.
A: 8.68

Quick request: pKi for each listed item, please.
1. Cn1c(=O)cnn(CCCCN2CCN(c3ccc(I)cc3)CC2)c1=O
2. Cn1c(=O)cnn(CCCCN2CCN(c3cccc(F)n3)CC2)c1=O

A:
1. 7.23
2. 9.70

====

System under test: 5-hydroxytryptamine receptor 1A (Homo sapiens) (UniProt P08908)
Sequence (P08908 whole entry): as above
Assay details: Agonist activity at human 5HT1AR expressed in CHO cells assessed as increase in [35S]GTPgammaS binding by liquid scintillation spectrometry relative to untreated control
Type: functional, cell-based
Run conditions: in the assay text read “relative to 5-HT” for “relative to untreated control”
Property name: Emax (%)
Answers are plain numbers, in %.

Some compounds with recorded Emax:
Q: Quick one: give measured Emax for Cn1c(=O)cnn(CCCCN2CCN(c3cccc(F)n3)CC2)c1=O
A: 95

Q: Answer with reported Emax of Cn1c(=O)cnn(CCCCN2CCN(c3ncccc3F)CC2)c1=O
A: 80

Q: Could you please provide reported Emax for Cn1c(=O)cnn(CCCCN2CCN(c3ccccn3)CC2)c1=O ? Thanks!
A: 85

Attention now shifts to the item below.
Q: Please give measured Emax of the following entry: Cn1c(=O)cnn(CCCCN2CCN(c3ccccc3)CC2)c1=O
A: 93

====

System under test: Adrenergic receptor alpha-1 (Homo sapiens, UniProt P35348+P25100+P35368)
Sequence (P35348 whole entry): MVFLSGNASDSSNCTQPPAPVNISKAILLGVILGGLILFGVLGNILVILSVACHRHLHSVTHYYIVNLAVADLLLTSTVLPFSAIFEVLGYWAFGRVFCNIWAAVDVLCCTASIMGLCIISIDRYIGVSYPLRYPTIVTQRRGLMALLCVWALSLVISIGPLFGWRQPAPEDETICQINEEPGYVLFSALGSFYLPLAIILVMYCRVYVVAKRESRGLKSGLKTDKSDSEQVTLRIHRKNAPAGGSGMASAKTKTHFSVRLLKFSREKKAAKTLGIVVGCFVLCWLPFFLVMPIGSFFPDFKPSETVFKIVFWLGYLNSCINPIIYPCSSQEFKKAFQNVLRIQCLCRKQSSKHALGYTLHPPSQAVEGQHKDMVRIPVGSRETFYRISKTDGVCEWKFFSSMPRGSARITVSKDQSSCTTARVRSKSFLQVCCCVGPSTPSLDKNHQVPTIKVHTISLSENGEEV
Sequence (P25100 whole entry): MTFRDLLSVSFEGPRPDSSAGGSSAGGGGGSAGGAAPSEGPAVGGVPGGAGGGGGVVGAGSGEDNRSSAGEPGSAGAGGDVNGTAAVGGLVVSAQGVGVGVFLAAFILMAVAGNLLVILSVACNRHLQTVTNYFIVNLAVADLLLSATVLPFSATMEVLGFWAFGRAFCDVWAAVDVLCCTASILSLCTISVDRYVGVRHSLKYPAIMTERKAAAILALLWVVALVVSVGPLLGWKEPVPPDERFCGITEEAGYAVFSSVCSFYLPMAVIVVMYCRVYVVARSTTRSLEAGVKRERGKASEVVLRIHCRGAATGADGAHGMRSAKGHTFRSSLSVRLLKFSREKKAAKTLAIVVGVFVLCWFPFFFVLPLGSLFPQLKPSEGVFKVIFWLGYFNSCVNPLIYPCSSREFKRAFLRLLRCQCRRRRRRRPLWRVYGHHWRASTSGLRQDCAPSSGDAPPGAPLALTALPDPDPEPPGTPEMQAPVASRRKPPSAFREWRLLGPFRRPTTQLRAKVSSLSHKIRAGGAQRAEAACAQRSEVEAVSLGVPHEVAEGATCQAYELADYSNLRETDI
Sequence (P35368 whole entry): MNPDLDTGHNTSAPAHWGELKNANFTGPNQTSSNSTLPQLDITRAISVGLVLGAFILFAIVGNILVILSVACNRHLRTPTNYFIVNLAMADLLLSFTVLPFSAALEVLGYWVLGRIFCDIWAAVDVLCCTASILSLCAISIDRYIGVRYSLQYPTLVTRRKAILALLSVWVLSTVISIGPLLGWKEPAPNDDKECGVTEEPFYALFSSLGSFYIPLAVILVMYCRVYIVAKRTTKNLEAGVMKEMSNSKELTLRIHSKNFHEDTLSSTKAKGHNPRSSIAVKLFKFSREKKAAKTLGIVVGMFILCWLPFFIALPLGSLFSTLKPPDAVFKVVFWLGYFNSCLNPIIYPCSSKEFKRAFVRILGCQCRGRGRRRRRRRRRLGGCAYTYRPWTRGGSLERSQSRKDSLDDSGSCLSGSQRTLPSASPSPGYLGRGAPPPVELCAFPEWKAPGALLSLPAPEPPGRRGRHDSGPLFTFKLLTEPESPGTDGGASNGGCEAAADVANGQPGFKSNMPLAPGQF
Assay details: Displacement of [3H]-7-methoxyprazosin from alpha1 adrenergic receptor (unknown origin) by competition binding assay
Could you please report measured Ki for the items listed next?
Numbers only, in µM.

Would you be so kind as to report Ki for each listed record?
1. CN(C)c1ccccc1N1CCN(CCCCn2ncc(=O)n(C)c2=O)CC1
2. CSc1ccccc1N1CCN(CCCCn2ncc(=O)n(C)c2=O)CC1
3. Cn1c(=O)cnn(CCCCN2CCN(c3ccccc3)CC2)c1=O
4. Cn1c(=O)cnn(CCCCN2CCN(c3ccccn3)CC2)c1=O

A:
0.35
0.0018
0.064
0.262

Q: Given CCOc1ccccc1N1CCN(CCCCn2ncc(=O)n(C)c2=O)CC1 , respond with its Ki.
A: 0.0018
